# Test system: EKVX NSCLC
# Experiment: NCI tumour cell line growth inhibition, 48 h
The following compounds are shown together with reported TGI values.
Endpoint: TGI

compound=Cc1cccc2c(=O)c3c(O)cc4c(c3n(C)c12)C=CC(C)(C)O4 experimental_value="> 100 µM"
compound="Fc1ccc(C(OCCN2CCC3CCC(C2)N3C/C=C/c2cccnc2)c2ccc(F)cc2)cc1 (stereo unspecified)" experimental_value="25 µM"
compound=CC(=O)NC1=CC(=O)C=C(Cl)C1=O experimental_value="> 100 µM"
compound="CC1CCC2[C@@H](C)COC3O[C@]4(C)CCC1C32OO4 (stereo partly specified)" experimental_value="> 100 µM"
compound=Nc1nc(Cl)c2ncn(Cc3ccc(-c4ccc(CCl)cc4)cc3)c2n1 experimental_value="40.1 µM"
compound=NC(N)=NC(N)=NCc1ccco1 experimental_value="> 1250 µM"

###

# System: UACC-62 melanoma
# Experiment: NCI tumour cell line growth inhibition, 48 h
Endpoint: TGI

molecule=O=C(CSCC(=O)N/N=C/c1ccncc1)N/N=C/c1ccncc1 experimental_value="> 100 µM"
molecule=Cc1c(C(=O)Nc2ccc(Cl)cc2)nc(N)nc1-c1cccc(Cl)c1 experimental_value="> 100 µM"
molecule=CCC(=O)Oc1ccc(/C=N/NC(N)=S)nc1 experimental_value="> 100 µM"
molecule=COc1cc(OC)cc(Oc2nc3c(N)cc(C(F)(F)F)cc3nc2-c2ccccc2)c1 experimental_value="> 100 µM"
molecule=N#C/C=C\c1ccc(-c2cc(C(F)(F)F)cc(C(F)(F)F)c2)o1 experimental_value="62.8 µM"
molecule=CCOc1ccccc1NC(=O)C(=O)c1c(O)c2ccc(O)cc2oc1=O experimental_value="> 100 µM"
molecule=CC1(C)N=C(N)N=C(N)N1CCCCc1ccccc1 experimental_value="> 100 µM"
molecule=CCN(CC)c1ccc2cc(-c3csc(-c4ccc(N(C)C)cc4)n3)c(=O)oc2c1 experimental_value="> 100 µM"
molecule="C=C1C(OCCO)OC2O[C@]3(C)CCC4[C@H](C)CCC1C24OO3 (some centres undefined)" experimental_value="> 100 µM"
molecule=O=S1(=O)C=C(c2ccccc2)C(c2ccccc2)=C1 experimental_value="3.64 µM"
molecule="O=C(CC(C(=O)c1cccs1)c1ccccc1)c1ccccc1O (centres undefined)" experimental_value="> 44.6 µM"
molecule=O=c1[nH]c(=S)c2[nH]c(=O)n(-c3ccccc3)c2[nH]1 experimental_value="> 100 µM"
molecule=COC(=O)c1ccccc1Nc1ccccc1C(=O)OC experimental_value="> 100 µM"
molecule=NC(=O)N=Nc1c2ccccc2n2[nH]ccc12 experimental_value="> 100 µM"
molecule=COn1cc(C(=O)N=C(SC)SC)c2ccccc21 experimental_value="55.8 µM"
molecule=CC(C)C(=O)CP(=O)(O)O experimental_value="> 100 µM"
molecule="Fc1ccc(C(OCCN2CCC3CCC(C2)N3C/C=C/c2cccnc2)c2ccc(F)cc2)cc1 (centres undefined)" experimental_value="25 µM"
molecule=N=c1oc2ccc(Cl)cc2cc1C(=O)NC1CCCCC1 experimental_value="> 100 µM"
molecule=CCOC(=O)c1c[nH]c2cc3c(cc2c1=O)CCS3 experimental_value="> 100 µM"
molecule=CCCC(CCC)C(=O)O experimental_value="> 20000 µM"
molecule=NC(=S)N=Nc1c(O)[nH]c2ccccc12 experimental_value="497 µM"
molecule="CCC12C=CCN3CCC4(C(=C(C(=O)OC)C1)Nc1ccccc14)[C@H]32 (some centres undefined)" experimental_value="67.6 µM"
molecule=O=C1C=C(OCC=C(Cl)Cl)C(=O)c2ccccc21 experimental_value="7.64 µM"
molecule=O=c1c2cc([N+](=O)[O-])cnc2sn1-c1ccc(Br)cc1 experimental_value="> 100 µM"
